System: human normal liver cells L-O2
assay.procedure: MTT cell proliferation (cytotoxicity) assay on human normal liver cells L-O2
Type: cell-based
settings: Homo sapiens, 48 h, pure compounds; MTT, 48 h, n = 6; read-out: IC50 L-O2 (proliferation inhibition)
Below is a list of entries, each paired with its recorded pIC50 value.
Scale note: pIC50 = -log10(concentration in M).

As a guide, the following entries are already answered.
CC1=CC2C(=O)C3(C=C(C)C(OC(=O)c4ccccc4)C3(O)C1O)C(C)CC1C2C1(C)C (stereo not drawn)	4.15
CC(C)=CCC[C@H](C)[C@@H]1CC[C@]2(C)C3=C(CC[C@@]12C)[C@@]1(C)CC[C@H](O)C(C)(C)C1CC3=O (stereo partly drawn) [Compound 11, epi-kansenone]	4.75
CC1=CC23C(=O)C(C=C(C)C(OC(=O)c4ccccc4)C2(O)C1O)C1C(CC3C)C1(C)C (stereo not drawn)	4.46
CCCCCC=CC=CC(=O)OC1C(C)=CC23C(=O)C(C=C(COC(C)=O)C(O)C12O)C1C(CC3C)C1(C)C (stereo not drawn)	4.91

Now turn to the next compound.
Request: Answer with the recorded pIC50 for the compound listed here: CCCCCC=CC=CC(=O)OC1C(C)=CC23C(=O)C(C=C(C)C(O)C12O)C1C(CC3C)C1(C)C (stereo not drawn)
Result: 4.88
